Where do the numbers come from? From patent US20250282757A1.

- ASSAY TEXT: Pharmacokinetic study in mice
- Assay type: in vivo, CD-1 mice
- RECORDED CONDITIONS: mouse, plasma; male CD-1 mice, 1 mg/kg iv; read-out: T½ (converted)
MEASUREMENT LABEL: half-life (h)
Report the figure in h without appending any unit label.

State the recorded half-life for this entry: N#Cc1ccc(OCc2cccc(OC3CCN(Cc4nc5ccc(C(=O)O)cc5n4C[C@@H]4CCO4)CC3)n2)c(F)c1 [Compound 55]
1.5

State the recorded half-life for this entry: N#Cc1ccc(OCc2cccc(OC3CCN(Cc4nc5c(F)cc(C(=O)O)cc5n4C[C@@H]4CCO4)CC3)n2)c(F)c1 [Compound 56]
2.3

State the recorded half-life for this entry: O=C(O)c1cc(F)c2nc(CN3CCC(Oc4cccc(COc5ccc(Cl)cc5F)n4)CC3)n(C[C@@H]3CCO3)c2c1 [Compound C23]
1

State the recorded half-life for this entry: O=C(O)c1ccc2nc(CN3CCC(Oc4cccc(COc5ccc(Cl)cc5F)n4)CC3)n(C[C@@H]3CCO3)c2c1 [Compound 49]
1

----------
Consider the following molecules; for each one, report its log10 of EC50.
- TARGET ENTITY: GLP-1R (Homo sapiens)
- ASSAY TEXT: Agonist activity on GLP-1R, HTRF cAMP detection in stably transfected GLP-1R/HEK293 cells
- RECORDED CONDITIONS: 30 min incubation
- Description: Detection of Agonist Activity of the Test Compounds on GLP-1R • 1) The test compound was dissolved in DMSO and diluted 4-fold with Bravo for a total of 10 concentration gradients (the starting concentration was 1 mM). […] HBSS (10 mL) pre-warmed at 37° C. was added, mixed gently, and centrifuged at 1000 rpm for 5 minutes. […] The plate was put into the EnVision microplate reader to read the values of OD665 nm and OD615 nm.
For clarity, the numbers are log10 values of EC50 expressed in nM.

State the recorded log10 of EC50 for this entry: N#Cc1ccc(OCc2cccc(NC3CCN(Cc4nc5ccc(C(=O)O)cc5n4C[C@@H]4CCO4)CC3)n2)c(F)c1 [Compound C16]
0.40

State the recorded log10 of EC50 for this entry: CCn1cncc1Cn1c(CN2CCC(Oc3cccc(COc4ccc(C#N)cc4F)n3)CC2)nc2ccc(C(=O)O)nc21 [Compound 6]
-0.88

State the recorded log10 of EC50 for this entry: CCn1cncc1Cn1c(CN2CCC(Oc3cccc(OCc4ccc(C#N)cc4F)n3)CC2)nc2ccc(/C=C/C(=O)O)cc21 [Compound C2]
-0.21

State the recorded log10 of EC50 for this entry: N#CCC1(Cn2c(CN3CCC(Oc4cccc(CSc5ccc(C#N)cc5F)n4)CC3)nc3ccc(C(=O)O)cc32)CC1 [Compound C13]
0.26

State the recorded log10 of EC50 for this entry: CCn1cncc1Cn1c(CN2CCC(Oc3cccc(OCc4ccc(C#N)cc4F)n3)CC2)nc2ccc(C(=O)O)cc21 [Compound S4]
-0.54

State the recorded log10 of EC50 for this entry: N#CCC1(Cn2c(CN3CCC(Oc4cccc(COc5ccc(C#N)cc5F)n4)CC3)nc3ccc(C(=O)O)nc32)CC1 [Compound 138]
-0.17

State the recorded log10 of EC50 for this entry: O=C(O)c1cc(F)c2nc(CN3CCC(Oc4cccc(COc5ccc(Cl)cc5F)n4)CC3)n(C[C@@H]3CCO3)c2c1 [Compound C23]
-0.60

----------
- TARGET ENTITY: GLP-1R (Homo sapiens, UniProt P43220)
- Sequence (P43220 24-463): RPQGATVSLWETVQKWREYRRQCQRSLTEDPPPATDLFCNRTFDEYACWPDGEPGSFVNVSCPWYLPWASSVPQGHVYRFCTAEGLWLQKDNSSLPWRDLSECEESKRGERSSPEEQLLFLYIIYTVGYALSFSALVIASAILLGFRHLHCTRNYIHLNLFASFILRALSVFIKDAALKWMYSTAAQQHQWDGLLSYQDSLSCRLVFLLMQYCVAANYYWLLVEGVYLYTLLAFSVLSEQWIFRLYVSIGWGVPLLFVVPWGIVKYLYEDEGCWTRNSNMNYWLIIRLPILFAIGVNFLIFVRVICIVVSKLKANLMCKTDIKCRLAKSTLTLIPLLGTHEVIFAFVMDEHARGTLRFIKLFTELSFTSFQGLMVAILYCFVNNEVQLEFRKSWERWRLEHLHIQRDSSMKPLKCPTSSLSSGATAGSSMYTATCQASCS
- ASSAY TEXT: Agonist activity on GLP-1R, HTRF cAMP detection in stably transfected GLP-1R/HEK293 cells
- RECORDED CONDITIONS: 30 min incubation
Consider the following compounds; for each one, report its EC50.
Report the figure in nM without appending any unit label.

State the recorded EC50 for this entry: N#Cc1ccc(OCc2cccc(OC3CCN(Cc4nc5c(F)cc(C(=O)O)cc5n4C[C@@H]4CCO4)CC3)n2)c(F)c1
0.21

State the recorded EC50 for this entry: N#CCC1(Cn2c(CN3CCC(Oc4cccc(OCc5ccc(C#N)cc5F)c4)CC3)nc3c(F)cc(C(=O)O)cc32)CC1
2.6

State the recorded EC50 for this entry: CCn1cncc1Cn1c(CN2CCC(Oc3cccc(COc4ccc(C#N)cc4F)n3)CC2)nc2ccc(C(=O)O)cc21
0.088

State the recorded EC50 for this entry: CCn1nc(C)cc1Cn1c(CN2CCC(Oc3cccc(COc4ccc(C#N)cc4F)n3)CC2)nc2ccc(C(=O)O)cc21
6.5

----------
- TARGET ENTITY: GLP-1R (Homo sapiens, UniProt P43220)
- ASSAY TEXT: Agonist activity on GLP-1R, HTRF cAMP detection in stably transfected GLP-1R/HEK293 cells
- Format: cell-based
- RECORDED CONDITIONS: relative to top concentration of reference GLP-1(7-37)
Consider the following compounds; for each one, report its Max activity.
Report the figure in % without appending any unit label.

State the recorded Max activity for this entry: N#Cc1ccc(OCc2cccc(NC3CCN(Cc4nc5ccc(C(=O)O)cc5n4C[C@@H]4CCO4)CC3)n2)c(F)c1
99.2

State the recorded Max activity for this entry: CCn1cncc1Cn1c(CN2CCC(Oc3cccc(COc4ccc(C#N)cc4F)n3)CC2)nc2c(F)cc(C(=O)O)cc21
98.6

State the recorded Max activity for this entry: CCN1C(=O)CCC1Cn1c(CN2CCC(Oc3cccc(COc4ccc(C#N)cc4F)n3)CC2)nc2ccc(C(=O)O)cc21 (stereo not drawn)
113.6

----------
- ASSAY TEXT: Pharmacokinetic study in mice
- Type: in vivo, CD-1 mice
- RECORDED CONDITIONS: mouse, plasma; male CD-1 mice, 1 mg/kg iv; read-out: Vdss
- Method: The pharmacokinetic properties of some compounds of the present invention were evaluated in mice pharmacokinetic experiments. SPF male CD-1 mice from Beijing Vital River Laboratory Animal Technology Co., Ltd were used with 6 mice in each group. Compounds were dissolved in 10% solutol/90% saline. A single intravenous administration was given at a dose of 1 mg/kg in a volume of 1 mL/kg. A single intragastric administration was given at a dose of 5 mg/kg in a volume of 1 mL/kg. […]
MEASUREMENT LABEL: Vd (L/kg)
Report the figure in L/kg without appending any unit label.

State the recorded Vd for this entry: O=C(O)c1cc(F)c2nc(CN3CCC(Oc4cccc(COc5ccc(Cl)cc5F)n4)CC3)n(C[C@@H]3CCO3)c2c1
1

State the recorded Vd for this entry: N#Cc1ccc(OCc2cccc(OC3CCN(Cc4nc5ccc(C(=O)O)cc5n4C[C@@H]4CCO4)CC3)n2)c(F)c1
1.3

State the recorded Vd for this entry: O=C(O)c1ccc2nc(CN3CCC(Oc4cccc(COc5ccc(Cl)cc5F)n4)CC3)n(C[C@@H]3CCO3)c2c1
1

State the recorded Vd for this entry: N#Cc1ccc(OCc2cccc(OC3CCN(Cc4nc5c(F)cc(C(=O)O)cc5n4C[C@@H]4CCO4)CC3)n2)c(F)c1
1.2

----------
- ASSAY TEXT: Pharmacokinetic study in mice
- Assay type: in vivo, CD-1 mice
- RECORDED CONDITIONS: mouse, plasma; male CD-1 mice, 1 mg/kg iv
MEASUREMENT LABEL: clearance (mL/min/kg)
Report the figure in mL/min/kg without appending any unit label.

State the recorded clearance for this entry: N#Cc1ccc(OCc2cccc(OC3CCN(Cc4nc5ccc(C(=O)O)cc5n4C[C@@H]4CCO4)CC3)n2)c(F)c1 [Compound 55]
26.2

State the recorded clearance for this entry: O=C(O)c1ccc2nc(CN3CCC(Oc4cccc(COc5ccc(Cl)cc5F)n4)CC3)n(C[C@@H]3CCO3)c2c1 [Compound 49]
12

State the recorded clearance for this entry: N#Cc1ccc(OCc2cccc(OC3CCN(Cc4nc5c(F)cc(C(=O)O)cc5n4C[C@@H]4CCO4)CC3)n2)c(F)c1 [Compound 56]
21.7

State the recorded clearance for this entry: O=C(O)c1cc(F)c2nc(CN3CCC(Oc4cccc(COc5ccc(Cl)cc5F)n4)CC3)n(C[C@@H]3CCO3)c2c1 [Compound C23]
15

----------
- TARGET ENTITY: GLP-1R (Homo sapiens, UniProt P43220)
- ASSAY TEXT: Agonist activity on GLP-1R, HTRF cAMP detection in stably transfected GLP-1R/HEK293 cells
- RECORDED CONDITIONS: 30 min incubation
I'd appreciate it if you marked entries class 1 when EC50 is lower than 4 nM and class 0 when it is not.

Confirm or reject: EC50 of CCn1cncc1Cn1c(CN2CCC(Oc3cccc(CSc4ccc(Cl)cc4F)n3)CC2)nc2ccc(C(=O)O)cc21 [Compound C9] lies strictly below 4 nM
class 1

Confirm or reject: EC50 of N#CCC1(Cn2c(CN3CCC(Oc4ccc(F)c(COc5ccc(C#N)cc5F)n4)CC3)nc3ccc(C(=O)O)cc32)CC1 [Compound 135] lies strictly below 4 nM
class 1

Confirm or reject: EC50 of N#Cc1ccc(OCc2cccc(Oc3ccc(Cc4nc5ccc(C(=O)O)cc5n4C[C@@H]4CCO4)cc3)n2)c(F)c1 [Compound C27] lies strictly below 4 nM
class 0

Confirm or reject: EC50 of O=C(O)/C=C/c1ccc2nc(CN3CCC(Oc4ccc(F)c(OCc5ccc(Cl)cc5F)n4)CC3)n(C[C@@H]3CCO3)c2c1 [Compound S36] lies strictly below 4 nM
class 0

Confirm or reject: EC50 of CCn1cncc1Cn1c(CN2CCC(Oc3cccc(COc4ccc(Cl)cc4F)c3)CC2)nc2ccc(C(=O)O)cc21 [Compound 7] lies strictly below 4 nM
class 1

Confirm or reject: EC50 of C#Cc1ccc(OCc2cccc(OC3CCN(Cc4nc5ccc(C(=O)O)cc5n4CC4(CC#N)CC4)CC3)n2)c(F)c1 [Compound C25] lies strictly below 4 nM
class 1

Confirm or reject: EC50 of N#Cc1ccc(OCc2nc(OC3CCN(Cc4nc5ccc(C(=O)O)cc5n4C[C@@H]4CCO4)CC3)ccc2F)c(F)c1 [Compound C83] lies strictly below 4 nM
class 1
